As shown below, each of these substances has a reported IC50 value.
# studyTarget: HLA-DP DPA1*01:03/DPB1*04:01 (Homo sapiens, UniProt P04440+P20036)
# protocolDescription: biochemical
# Format: binding
# experimentalSetup: read-out: Binding capacity/IC50 (nM) DPA1*01:03 DPB1*04:01
Ends that are not written are not given here.
metricName: IC50 (nM)

substance="YAKMRSAHTNDVKQL-NH2 [RT(354-368)]" censorsymbol== quantitativereadout=3550
substance="IRYPLTFGWCFKLVPVDPREVEEA-NH2 [nef(133-156)]" censorsymbol== quantitativereadout=44
substance="VGSLQYLALTALITPKK-NH2 [vif(142-158)]" censorsymbol== quantitativereadout=33
substance="IVALIIAIVVWTIV-NH2 [vpu(13-26)]" censorsymbol=> quantitativereadout=30000
substance="NYPIVQNLQGQMVHQAISPR-NH2 [p17(131-132)/p24(1-18)]" censorsymbol== quantitativereadout=1550
substance="SEELRSLYNTVATLYCVHQ-NH2 [p17(72-90)]" censorsymbol== quantitativereadout=240
